meta.source: ChEMBL document CHEMBL5352436

Listed next: entries and their corresponding fraction unbound at 10 µM.
# procedure details: Plasma protein binding in human at 10 uM by rapid equilibrium dialysis based RF-MS analysis
# Type: ADME, cell-free
# experimental parameters: read-out: PB (converted)
quantity name: fraction unbound at 10 µM

C=C(C=O)[C@@H]1CC[C@]2(C(=O)OCc3cn([C@H]4O[C@H](COC(C)=O)[C@@H](OC(C)=O)[C@H](OC(C)=O)[C@H]4OC(C)=O)nn3)CC[C@]3(C)[C@H](CC[C@@H]4[C@@]5(C)Cc6nccnc6C(C)(C)[C@@H]5CC[C@]43C)[C@@H]12 (stereo in doubt): 0.0017
C=C(C)[C@@H]1CC[C@]2(C(=O)OCc3cn([C@H]4O[C@H](COC(C)=O)[C@@H](OC(C)=O)[C@H](OC(C)=O)[C@H]4OC(C)=O)nn3)CC[C@]3(C)[C@H](CC[C@@H]4[C@@]5(C)CC[C@H](O)C(C)(C)[C@@H]5CC[C@]43C)[C@@H]12: 0.0044
C=C(C)[C@@H]1CC[C@]2(C(=O)OCc3cn([C@H]4O[C@H](COC(C)=O)[C@@H](OC(C)=O)[C@H](OC(C)=O)[C@H]4OC(C)=O)nn3)CC[C@]3(C)[C@H](CC[C@@H]4[C@@]5(C)Cc6nccnc6C(C)(C)[C@@H]5CC[C@]43C)[C@@H]12 (stereo in doubt): 0.107
C=C(C=O)[C@@H]1CC[C@]2(C(=O)OCc3cn([C@H]4O[C@H](COC(C)=O)[C@@H](OC(C)=O)[C@H](OC(C)=O)[C@H]4OC(C)=O)nn3)CC[C@]3(C)[C@H](CC[C@@H]4[C@@]5(C)CC[C@H](O)C(C)(C)[C@@H]5CC[C@]43C)[C@@H]12: 0.0015
